Molecular target: human PXR (Homo sapiens, UniProt O75469)
Construct: host or cells: DPX-2 cell line (derived from HepG2)
Sequence (O75469 1-434): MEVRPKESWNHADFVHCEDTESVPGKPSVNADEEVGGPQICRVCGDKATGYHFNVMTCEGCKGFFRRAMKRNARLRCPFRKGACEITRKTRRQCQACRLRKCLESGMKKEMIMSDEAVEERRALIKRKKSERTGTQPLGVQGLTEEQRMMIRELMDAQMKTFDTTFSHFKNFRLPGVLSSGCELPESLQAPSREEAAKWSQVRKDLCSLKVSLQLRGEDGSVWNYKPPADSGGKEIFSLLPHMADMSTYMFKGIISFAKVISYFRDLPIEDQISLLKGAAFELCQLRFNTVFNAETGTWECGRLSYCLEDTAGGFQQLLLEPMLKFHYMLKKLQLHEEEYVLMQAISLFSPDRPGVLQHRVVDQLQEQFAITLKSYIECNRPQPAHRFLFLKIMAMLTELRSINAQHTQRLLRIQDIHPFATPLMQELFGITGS
Test: PXR assay: PXR mediated CYP3A4 induction in DPX-2 cell line
Assay type: cell-based
Settings: DPX-2 cells
test_readout: CYP3A4 Induction-PXR human PXR internal Max % Activity (%)

C[C@@H]1CN(c2nc(-n3ccc(OCC4CCC4)n3)ccc2C(=O)NS(=O)(=O)c2cccnc2N)C(C)(C)C1 [D, reference compound] : 10
Cc1nn(C)cc1S(=O)(=O)NC(=O)c1ccc(-n2ccc(OCC3(C(F)(F)F)CC3)n2)nc1N1CC(C(C)C)CC1(C)C (racemic) [Compound 41] : 4
Cc1nn(C)cc1S(=O)(=O)NC(=O)c1ccc(-n2ccc(OCC3C[C@@H]4CC[C@H]3C4)n2)nc1N1C[C@@H](C)CC1(C)C (stereo partly drawn) [Compound 50] : 4

A = Cc1nn(C)c(C)c1S(=O)(=O)NC(=O)c1ccc(-n2ccc(OCC3(C(F)(F)F)CC3)n2)nc1N1C[C@@H](C)CC1(C)C [Compound 16]
B = C[C@@H]1CN(c2nc(-n3ccc(OCC(C)(C)C)n3)ccc2C(=O)NS(=O)(=O)c2ccc[nH]c2=O)C(C)(C)C1 [B, reference compound]
Prompt: Please state the entry with greater CYP3A4 Induction-PXR human PXR internal Max % Activity among A and B . State your choice using its label.
Completion: A

----------
System: Rat hepatocytes
Assay: Hepatocyte clearance, rat hepatocytes; note: time not given here
Format: in vitro ADME
Details: percent unchanged
test_readout: Hepatocyte clearance-Rat Rat hepatocytes CL pct_unchanged (%)

In the examples that follow, each entry is paired with its recorded Hepatocyte clearance-Rat Rat hepatocytes CL pct_unchanged.
Cc1nn(C)c(C)c1S(=O)(=O)NC(=O)c1ccc(-n2ccc(OCC(C)(C)C(F)(F)F)n2)nc1N1C[C@@H](C)CC1(C)C [Compound 17] : 19
Cc1nn(C)cc1S(=O)(=O)NC(=O)c1ccc(-n2ccc(OC3CC3C(F)(F)F)n2)nc1N1C[C@@H](C)CC1(C)C (some centres unmarked) [Compound 35] : 54
Cc1nn(C)cc1S(=O)(=O)NC(=O)c1ccc(-n2ccc(OC3CC3C(F)(F)F)n2)nc1N1C[C@@H](C)CC1(C)C (some centres unmarked) [Compound 34] : 39

P = Cc1nn(C)cc1S(=O)(=O)NC(=O)c1ccc(-n2ccc(OCC3C4(CC4)C34CC4)n2)nc1N1C[C@@H](C)CC1(C)C [Compound 28]
Q = Cc1nn(C)cc1S(=O)(=O)NC(=O)c1ccc(-n2ccc(OCC3C[C@@H]4CC[C@H]3C4)n2)nc1N1C[C@@H](C)CC1(C)C (some centres unmarked) [Compound 50]
Prompt: Please state the entry with greater Hepatocyte clearance-Rat Rat hepatocytes CL pct_unchanged among P and Q . State your choice using its label.
Completion: P
(P: 41%, Q: 20%)

----------
Assay: Rat IV and PO PK studies
Assay type: in vivo, male Sprague-Dawley rats
Conditions: IV bolus, nominal 3.0 mg/kg
test_readout: RAT PLASMA-RAW IV-bolus CL_drg (mL/min/kg)

In the examples that follow, each entry is paired with its recorded RAT PLASMA-RAW IV-bolus CL_drg.
Cc1nn(C)cc1S(=O)(=O)NC(=O)c1ccc(-n2ccc(OCC3C(C)(C)C3(C)C)n2)nc1N1C[C@@H](C)CC1(C)C : 4.9
Cc1c(S(=O)(=O)NC(=O)c2ccc(-n3ccc(OCC4C(C)(C)C4(C)C)n3)nc2N2C[C@@H](C)CC2(C)C)cnn1C : 6.7
Cc1nn(C)cc1S(=O)(=O)NC(=O)c1ccc(-n2ccc(OCC(C)(C)C(F)(F)F)n2)nc1N1C[C@@H](C)CC1(C)C : 1.6
Cc1c(S(=O)(=O)NC(=O)c2ccc(-n3ccc(OCC(C)(C)C(F)(F)F)n3)nc2N2C[C@@H](C)CC2(C)C)cnn1C : 3
Cc1nn(C)cc1S(=O)(=O)NC(=O)c1ccc(-n2ccc(OCCC3(C(F)(F)F)CC3)n2)nc1N1C[C@@H](C)CC1(C)C : 2.5

1 = Cc1nn(C)cc1S(=O)(=O)NC(=O)c1ccc(-n2ccc(OCC3C4(CC4)C34CC4)n2)nc1N1C[C@@H](C)CC1(C)C
2 = C[C@@H]1CN(c2nc(-n3ccc(OCC(C)(C)C)n3)ccc2C(=O)NS(=O)(=O)c2ccccc2)C(C)(C)C1 [C, reference compound]
Prompt: Parameter metric = RAT PLASMA-RAW IV-bolus CL_drg. Return the lower-valued option from 1 and 2 . State your choice using its label.
Completion: 1
(1: 1.8 mL/min/kg, 2: 29.2 mL/min/kg)

A = Cc1c(S(=O)(=O)NC(=O)c2ccc(-n3ccc(OCCC4(C(F)(F)F)CC4)n3)nc2N2C[C@@H](C)CC2(C)C)cnn1C
B = Cc1c(S(=O)(=O)NC(=O)c2ccc(-n3ccc(OCC4(C(F)(F)F)CC4)n3)nc2N2C[C@@H](C)CC2(C)C)cnn1C
Prompt: Parameter metric = RAT PLASMA-RAW IV-bolus CL_drg. Return the lower-valued option from A and B . State your choice using its label.
Completion: B
(B: 1.7 mL/min/kg, A: 3.9 mL/min/kg)

----------
Biological target: human PXR (Homo sapiens, UniProt O75469)
Construct: host or cells: DPX-2 cell line (derived from HepG2)
Assay: PXR assay: PXR mediated CYP3A4 induction in DPX-2 cell line
Type: cell-based
Details: DPX-2 cells
test_readout: CYP3A4 Induction-PXR human PXR internal Max % Activity (%)

Cc1nn(C)cc1S(=O)(=O)NC(=O)c1ccc(-n2ccc(OCC3(C(F)(F)F)CC3)n2)nc1N1CC(C(C)(C)C)CC1(C)C (single isomer, unassigned) [Compound 54] : 5

A = Cc1n[nH]cc1S(=O)(=O)NC(=O)c1ccc(-n2ccc(OCC(C)(C)C(F)(F)F)n2)nc1N1C[C@@H](C)CC1(C)C [Compound 31]
B = Cc1c(S(=O)(=O)NC(=O)c2ccc(-n3ccc(OCC4(C(F)(F)F)CC4)n3)nc2N2C[C@@H](C)CC2(C)C)cnn1C [Compound 9]
C = Cc1nn(C)cc1S(=O)(=O)NC(=O)c1ccc(-n2ccc(OCC(C)(C)C(F)(F)F)n2)nc1N1CC(CO)CC1(C)C (stereo not shown) [Compound 30]
Prompt: Exam item: list the entries in increasing order of CYP3A4 Induction-PXR human PXR internal Max % Activity. Sort and list the labels as requested.
Completion: A, C, B

----------
Assay: MDCK-Wild Type permeability, 96 well + 0.1% BSA
Type: in vitro ADME
Settings: dog, MDCK, A-B direction, read-out: MDCK-Wild Type-Permeability 96 well + 0.1% BSA Papp compound (A-B)
test_readout: Papp A→B (×10⁻⁶ cm/s)

In the examples that follow, each entry is paired with its recorded Papp A→B.
C[C@@H]1CN(c2nc(-n3ccc(OCC(C)(C)C)n3)ccc2C(=O)NS(=O)(=O)c2ccccc2)C(C)(C)C1 [C, reference compound] : 1.5
Cc1nn(C)cc1S(=O)(=O)NC(=O)c1ccc(-n2ccc(OCC3(C(F)(F)F)CC3)n2)nc1N1CC(C(C)(C)C)CC1(C)C (single isomer, unassigned) [Compound 54] : 1.1
Cc1nn(C)cc1S(=O)(=O)NC(=O)c1ccc(-n2ccc(OCC3C(C)(C)C3(C)C)n2)nc1N1C[C@@H](C)CC1(C)C [Compound 20] : 1.4
Cc1nn(C)cc1S(=O)(=O)NC(=O)c1ccc(-n2ccc(OCC3C[C@@H]4CC[C@H]3C4)n2)nc1N1C[C@@H](C)CC1(C)C (stereo partly shown) [Compound 50] : 1.3
Cc1nn(C)cc1S(=O)(=O)NC(=O)c1ccc(-n2ccc(OC(C3CC3)C3CC3)n2)nc1N1C[C@@H](C)CC1(C)C [Compound 48] : 4.6
Cc1nn(C)c(C)c1S(=O)(=O)NC(=O)c1ccc(-n2ccc(OCC(C)(C)C(F)(F)F)n2)nc1N1C[C@@H](C)CC1(C)C [Compound 17] : 3.8
Cc1nn(C)cc1S(=O)(=O)NC(=O)c1ccc(-n2ccc(OCC(C)(CO)C(F)(F)F)n2)nc1N1C[C@@H](C)CC1(C)C (stereo partly shown) [Compound 45] : 1.2
Cc1nn(C)cc1S(=O)(=O)NC(=O)c1ccc(-n2ccc(OCC(C)(C)C(F)(F)F)n2)nc1N1C[C@@H](C)CC1(C)C [Compound 1] : 4.5
Cc1nn(C)cc1S(=O)(=O)NC(=O)c1ccc(-n2ccc(OCC(C3CC3)C3CC3)n2)nc1N1C[C@@H](C)CC1(C)C [Compound 32] : 3.8

1 = Cc1nn(C)cc1S(=O)(=O)NC(=O)c1ccc(-n2ccc(OC3CC3C(F)(F)F)n2)nc1N1C[C@@H](C)CC1(C)C (stereo partly shown) [Compound 34]
2 = C[C@@H]1CN(c2nc(-n3ccc(OCC4(C(F)(F)F)CC4)n3)ccc2C(=O)NS(=O)(=O)c2cnn(C(C)(C)C)c2)C(C)(C)C1 [Compound 8]
3 = Cc1nn(C)cc1S(=O)(=O)NC(=O)c1ccc(-n2ccc(OCC3C4(CC4)C34CC4)n2)nc1N1C[C@@H](C)CC1(C)C [Compound 28]
4 = C[C@@H]1CN(c2nc(-n3ccc(OCC(C)(C)C)n3)ccc2C(=O)NS(=O)(=O)c2ccc[nH]c2=O)C(C)(C)C1 [B, reference compound]
Prompt: Exam item: list the entries in increasing order of Papp A→B. Sort and list the labels as requested.
Completion: 4, 3, 2, 1
